test system: HepG2; experiment: GSK_TCMDC: Percent inhibition of human HepG2 cell line. Test compounds present at 10uM.; type: functional
Each record here notes measured Inhibition.
parameterMeasured: Inhibition (%)

[[record]]
molecule = "C[C@H](Cc1ccc(OCCCCCCCOc2ccc(C[C@@H](C)NC[C@H](O)c3cccc(Cl)c3)cc2)cc1)NC[C@H](O)c1cccc(Cl)c1.Cl"
parametermeasured = "Inhibition"
unitstext = "%"
value = 99

[[record]]
molecule = "COc1cc(C(=O)N2N=C(c3c(-c4ccccc4)c4cc(Br)ccc4[nH]c3=O)CC2c2cccc([N+](=O)[O-])c2)cc(OC)c1OC (stereo not drawn)"
parametermeasured = "Inhibition"
unitstext = "%"
value = 1

[[record]]
molecule = "CC(C)C[C@@H](/C=N/N1CCNC1=O)NC(=O)[C@H](CC(C)C)NC(=O)c1ccc(OCCN2CCOCC2)cc1"
parametermeasured = "Inhibition"
unitstext = "%"
value = 21

[[record]]
molecule = "O=C1Nc2ccccc2/C1=N/NC(=S)N1CCOCC1"
parametermeasured = "Inhibition"
unitstext = "%"
value = 51

[[record]]
molecule = "O=C(NCCCCN1CCC(c2cccc3ccccc23)CC1)c1ccc(-c2ccc(C(F)(F)F)cn2)cc1"
parametermeasured = "Inhibition"
unitstext = "%"
value = 31

[[record]]
molecule = "CC(C)CCN1CCCN(Cc2cccc(NC(=O)c3cc4ccccc4s3)c2)CC1.O=C(O)C(F)(F)F"
parametermeasured = "Inhibition"
unitstext = "%"
value = 34

[[record]]
molecule = "O=C(NOCCCCOc1ccc(Cl)c(Cl)c1)c1ccccc1"
parametermeasured = "Inhibition"
unitstext = "%"
value = 2

[[record]]
molecule = "O=C(/C=C/c1ccc(Cl)cc1)NCCCCCN1CCCC(C(=O)Nc2ccc(Cl)c(Cl)c2)C1 (stereo not drawn)"
parametermeasured = "Inhibition"
unitstext = "%"
value = 27

